Each recorded value in this set is attributed to patent US4760148A.

assay: Absorbance at 340nm (extinction coefficients); type: physicochemical; details: equal weight basis
Attribute Measured: Specific Extinction Coefficient a (L/g/cm)
Express the result in L/g/cm but write the number alone.

CC(C)(c1ccccc1)c1cc(-n2nc3ccc(C(C)(C)c4ccccc4)cc3n2)c(O)c(C(C)(C)c2ccccc2)c1 :: 28
CC(C)(c1ccccc1)c1cc(-n2nc3ccc(Cc4ccccc4)cc3n2)c(O)c(C(C)(C)c2ccccc2)c1 :: 35
CC(C)(c1ccccc1)c1cc(-n2nc3ccccc3n2)c(O)c(C(C)(C)c2ccccc2)c1 :: 34
CC(C)(C)CC(C)(C)c1cc(-n2nc3ccc(C(C)(C)c4ccccc4)cc3n2)c(O)c(C(C)(C)c2ccccc2)c1 :: 33
CC(C)(C)c1cc(-n2nc3ccc(C(C)(C)c4ccccc4)cc3n2)c(O)c(C(C)(C)C)c1 :: 43

Enquiry: What value of measured Specific Extinction Coefficient a is listed for CC(C)(C)CC(C)(C)c1cc(-n2nc3ccc(C(C)(C)c4ccccc4)cc3n2)c(O)c(C(C)(C)CC(C)(C)C)c1 ?
Return: 31

Enquiry: What value of measured Specific Extinction Coefficient a is listed for CCC(C)(C)c1cc(-n2nc3ccc(C(C)(C)c4ccccc4)cc3n2)c(O)c(C(C)(C)CC)c1 ?
Return: 41

----------
assay: Thermal gravimetric analysis (resistance to loss of benzotriazole stabilizers); conditions: scanning at 10°(C.) per minute, 100 ml nitrogen/minute
Listed molecules paired with reported Temperature °C. to 50% Weight Loss of Stabilizer
Express the result in °C but write the number alone.

CC(C)(C)CC(C)(C)c1cc(-n2nc3ccc(C(C)(C)c4ccccc4)cc3n2)c(O)c(C(C)(C)CC(C)(C)C)c1 :: 348
CCC(C)(C)c1cc(-n2nc3ccccc3n2)c(O)c(C(C)(C)CC)c1 :: 233
CCC(C)(C)c1cc(-n2nc3ccc(C(C)(C)c4ccccc4)cc3n2)c(O)c(C(C)(C)CC)c1 :: 325
CC(C)(c1ccccc1)c1cc(-n2nc3ccccc3n2)c(O)c(C(C)(C)c2ccccc2)c1 :: 340
CC(C)(c1ccccc1)c1cc(-n2nc3ccc(Cc4ccccc4)cc3n2)c(O)c(C(C)(C)c2ccccc2)c1 :: 405
Cc1ccc(O)c(-n2nc3ccccc3n2)c1 :: 215
CC(C)(C)c1cc(-n2nc3ccc(C(C)(C)c4ccccc4)cc3n2)c(O)c(C(C)(C)C)c1 :: 338
CC(C)(c1ccccc1)c1cc(-n2nc3ccc(C(C)(C)c4ccccc4)cc3n2)c(O)c(C(C)(C)c2ccccc2)c1 :: 412
CC(C)(C)CC(C)(C)c1cc(-n2nc3ccccc3n2)c(O)c(C(C)(C)c2ccccc2)c1 :: 307
CCC(C)c1cc(-n2nc3ccccc3n2)c(O)c(C(C)(C)C)c1 (stereo not shown) :: 247

Enquiry: What value of measured Temperature °C. to 50% Weight Loss of Stabilizer is listed for CC(C)(C)CC(C)(C)c1cc(-n2nc3ccc(C(C)(C)c4ccccc4)cc3n2)c(O)c(C(C)(C)c2ccccc2)c1 ?
Return: 387

Enquiry: What value of measured Temperature °C. to 50% Weight Loss of Stabilizer is listed for CC(C)(C)CC(C)(C)c1ccc(O)c(-n2nc3ccccc3n2)c1 ?
Return: 260

Enquiry: What value of measured Temperature °C. to 50% Weight Loss of Stabilizer is listed for Cc1cc(C(C)c2ccccc2)c(O)c(-n2nc3ccccc3n2)c1 (stereo not shown) ?
Return: 290
